TARGET DESC: FAD-linked sulfhydryl oxidase ALR (Homo sapiens, UniProt P55789)
Sequence (P55789 whole entry): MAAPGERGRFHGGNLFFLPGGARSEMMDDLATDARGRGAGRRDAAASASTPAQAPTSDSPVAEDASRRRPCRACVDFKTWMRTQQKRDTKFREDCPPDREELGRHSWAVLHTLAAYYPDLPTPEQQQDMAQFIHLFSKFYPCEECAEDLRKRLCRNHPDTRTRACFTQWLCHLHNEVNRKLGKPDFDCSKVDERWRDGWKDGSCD
ASSAY PROTOCOL: inhibitors of human ALR sulfhydryl oxidase, dose response, biochemical, H2O2 detection, luminescence, cherry-pick (AID 493248)
Activity calls are given as the source filed them.
Recorded measurements of AC50, one per entry

Some solved cases for reference:
MOLECULE: Cc1cc(C(=O)Nc2nnc(-c3ccccc3)s2)no1
MEASUREMENT NAME: AC50
RESULT: 18.9 µM (active)

MOLECULE: CCc1ccc(/C=N/NC(=O)Cc2cccn2C)cc1
MEASUREMENT NAME: AC50
RESULT: 13.4 µM (active)

Please turn your attention to the following entry.
I would be grateful if you could share the reported AC50 for CCC1(C)N=C(N)Nc2nc3cc(C)c(C)cc3n21 (stereo not drawn) .
4.1 µM (active)

---

TARGET DESC: Aminopeptidase N (Plasmodium falciparum FcB1/Columbia, UniProt O96935)
Sequence (O96935 whole entry): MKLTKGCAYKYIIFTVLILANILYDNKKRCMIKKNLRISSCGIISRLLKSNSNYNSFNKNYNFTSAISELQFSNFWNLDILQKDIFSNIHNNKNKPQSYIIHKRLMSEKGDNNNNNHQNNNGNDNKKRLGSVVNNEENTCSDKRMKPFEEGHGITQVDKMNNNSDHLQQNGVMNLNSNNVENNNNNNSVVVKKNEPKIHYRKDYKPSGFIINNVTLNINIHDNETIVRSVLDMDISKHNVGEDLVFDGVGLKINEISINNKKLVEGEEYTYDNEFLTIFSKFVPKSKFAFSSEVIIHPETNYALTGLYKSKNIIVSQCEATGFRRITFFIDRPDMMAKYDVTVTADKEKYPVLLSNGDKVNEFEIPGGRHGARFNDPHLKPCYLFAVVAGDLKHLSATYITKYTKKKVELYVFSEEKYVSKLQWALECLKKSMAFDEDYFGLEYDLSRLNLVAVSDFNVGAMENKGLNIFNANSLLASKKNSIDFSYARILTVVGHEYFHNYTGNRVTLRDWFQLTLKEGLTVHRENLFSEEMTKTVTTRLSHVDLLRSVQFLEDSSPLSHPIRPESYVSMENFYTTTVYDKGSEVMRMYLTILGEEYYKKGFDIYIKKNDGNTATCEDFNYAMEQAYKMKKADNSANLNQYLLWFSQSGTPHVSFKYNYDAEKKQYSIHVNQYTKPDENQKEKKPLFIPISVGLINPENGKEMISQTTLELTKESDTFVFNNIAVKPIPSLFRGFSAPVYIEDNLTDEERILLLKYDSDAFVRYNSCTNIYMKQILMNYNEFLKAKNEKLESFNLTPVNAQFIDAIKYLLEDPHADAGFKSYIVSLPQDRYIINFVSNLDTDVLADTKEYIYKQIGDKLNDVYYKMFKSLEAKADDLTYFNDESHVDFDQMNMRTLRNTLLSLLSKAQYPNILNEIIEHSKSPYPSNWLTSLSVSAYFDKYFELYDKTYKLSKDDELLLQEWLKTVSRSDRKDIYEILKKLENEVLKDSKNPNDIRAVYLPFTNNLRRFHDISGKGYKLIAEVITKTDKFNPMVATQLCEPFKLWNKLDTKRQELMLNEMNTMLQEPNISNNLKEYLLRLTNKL
ASSAY PROTOCOL: P. falciparum M1AAP inhibitors, biochemical, fluorogenic H-Leu-NHMec substrate, 1536-well (AID 1445)
Design: species or system Plasmodium falciparum 3D7, 3D7
Calls of active or inactive are those of the source.
Let's look at some compounds and their measured IC50.

STRUCTURE SMILES STRING: CCOc1ccc(N2C(=O)/C(=C\NNc3nnc(C)c(O)n3)c3ccccc3C2=O)cc1
IC50: 20.9 µM (active)

STRUCTURE SMILES STRING: CC(C)NS(=O)(=O)c1ccc(CCC(=O)NCc2ccc3c(c2)OCO3)cc1
IC50: 33.6 µM (active)

STRUCTURE SMILES STRING: COc1ccc(/C=N/NC(=O)CSc2nnc(O)nc2O)cc1
IC50: 29 µM (active)

Alright, here's another compound for you.
Tell me the measured IC50 of CCC1=NN2C(=N)/C(=C/c3c(C)nn(-c4ccccc4)c3Cl)C(=O)N=C2S1 , please.
46.1 µM (active)

---

TARGET DESC: Ubiquitin-conjugating enzyme E2 N (Homo sapiens);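 note: Dose-response confirmation in a TR-FRET assay detecting UBC13-driven polyubiquitin chain formation, inhibition measured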
Sequence (P61088 whole entry): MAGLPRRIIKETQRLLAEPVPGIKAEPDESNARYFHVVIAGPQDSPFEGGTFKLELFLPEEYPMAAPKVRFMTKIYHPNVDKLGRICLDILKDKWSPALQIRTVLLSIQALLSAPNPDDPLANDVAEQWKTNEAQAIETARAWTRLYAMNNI
Assay type: functional
Activity calls are given as the source filed them.
The categories you may choose from are active, inactive

Use these answered entries as a reference point.
COMPOUND: CCCn1c2ccccc2c2nc3ccccc3nc21
CATEGORY LABEL: inactive
--
COMPOUND: CCN(CC)CCC(c1ccc(N(C)C)cc1)c1c(OC)cc(OC)c2c(-c3ccccc3)cc(=O)oc12 (centres undefined)
CATEGORY LABEL: inactive
--
COMPOUND: CCCOc1ccc(C(=O)NNC(=S)NC(=O)CC)cc1
CATEGORY LABEL: active
--
COMPOUND: CCCCC(=O)Nc1ccc2c3c(cccc13)C(=O)N2CC
CATEGORY LABEL: inactive
--
COMPOUND: CCc1ccc2nc(N(CCCN(C)C)C(=O)c3ccc(C(=O)c4ccccc4)cc3)sc2c1
CATEGORY LABEL: active
--
COMPOUND: Cc1cc2nc(NCCCO)n(CC(=O)c3cc(C(C)(C)C)c(O)c(C(C)(C)C)c3)c2cc1C
CATEGORY LABEL: inactive

Hi, sorry to bother you, what did the test record for COc1ccc(OC)c2sc(N(CCCN(C)C)C(=O)c3ccc(S(=O)(=O)N4CCc5ccccc5C4)cc3)nc12 ?
active

// param item: CCOC(=O)/C(=C\c1cccc(O)c1)c1nc(O)c2c(C)c(C)sc2n1 ; yields the recorded call
active

For CCCCCOc1ccc(Br)cc1/C(C)=N/NC1=NCCN1 , which call appears in the assay record?
inactive
